molecular target: Mature human IL-6 (human, UniProt P05231 30-212); assay: cell-based or functional assay
Sequence (P05231 30-212): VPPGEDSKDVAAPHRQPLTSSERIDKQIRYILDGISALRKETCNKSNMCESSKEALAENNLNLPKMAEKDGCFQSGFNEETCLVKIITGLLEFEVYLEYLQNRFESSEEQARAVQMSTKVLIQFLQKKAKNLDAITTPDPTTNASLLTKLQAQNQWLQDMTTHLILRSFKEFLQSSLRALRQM
metricName: IC50, TF-1 Proliferation Assay (nM)

>>> reported("Antibody 5 IgG (antibody, V domains shown, Non-germlined; IgG1 with human heavy chain and kappa constant domains; also called Ab 5) VH: EVQLVQSGGGLIQPGGSLRLSCAASGFTISSNYMIWVRQAPGKGLEWVSDLYYYAGDTYYADSVKGRFTMSRDISKNTVYLQMNSLRAEDTGVYYCARWADGHYYYADVWGRGTLVSVSS VL: DIVMTQSPPTLSASVGDRVTITCRASQGISSWLAWYQQKPGRAPKVLIYKASTLESGVPSRFSGSGSGTDFTLTISSLQPEDFASYYCQQSYSAPWTFGQGTKLEIKR")
0.042
>>> reported("Antibody 3 IgG (antibody, V domains shown, Non-germlined; IgG1 with human heavy chain and kappa constant domains; also called Ab 3) VH: QVQLVQSGGGLIQPGGSLRLSCAASGFTISSNYMVWVRQAPGKGLEWVSDLYYYAGDTYYADSVKGRFTVSRDISKNTVYLQMNSLRAEDTGVYYCARWADDHYYHIDVWGRGTLVTVSS VL: DIVMTQSPSTLSASVGDRVTITCRASQGISSWLAWYQQKPGRAPKALIYKASTLESGVPSRFSGSGSGTDFTLTISSLQPEDFATYYCQQSYSTPWTFGQGTKLEIKR")
0.05
>>> reported("Antibody 2 scFv (scFv, V domains shown, Non-germlined; also called Ab 2; not shown: scFv linker, domain order and any purification tags) VH: EVQLVQSGGGLIQPGGSLRLSCAASGFTISSNYMTWVRQAPGKGLEWVSDLYYYAGDTYYADSVRGRFTMSRDISKNTVYLQMDSLRAEDTGVYYCARWADGHYYYIDVWGGGTLVTVSS VL: DIVMTQSPSTLSASVGDRVTITCRASQGISSWLTWYQQKPGRAPKVLIYKASTLESGVPSRFSGSGSGTDFTLTISSLQPEDFATYYCQQSYSAPWTFGQGTKLELKR")
9.6
